Below: compounds with IC50 recorded for Cytochrome P450 2D6 (Homo sapiens) in separate published works.

Past entries and their recorded results:
compound=CO[C@H]1[C@@H](C)SC(N)=N[C@]1(C)c1cc(NC(=O)c2ccc(F)cn2)ccc1F target_or_system="Cytochrome P450 2D6 (Homo sapiens)" test_result="≥ 20 µM"
compound=O=C1COc2cc(NCc3cccc(C(=O)Nc4cccnc4)c3)c(Cl)cc2N1 target_or_system="Cytochrome P450 2D6 (Homo sapiens)" test_result="> 50 µM"
compound="COCc1ccccc1-c1ccccc1[C@H](C)n1cncc1C(=O)N1CCC2NCCO[C@@H]2C1 (stereo partly shown)" target_or_system="Cytochrome P450 2D6 (Homo sapiens)" test_result="9.1 µM"
compound="N#CC1(c2ccc(CCC3(C4CCCC4)CC(O)=C(Cc4nc5ncccn5n4)C(=O)O3)cc2F)CC1 (racemic)" target_or_system="Cytochrome P450 2D6 (Homo sapiens)" test_result="0.41 µM"
compound=COCCOc1ncnc2[nH]cc(Cc3ccc(Nc4ccc(OC)nc4)nc3F)c12 target_or_system="Cytochrome P450 2D6 (Homo sapiens)" test_result="> 10 µM"

## Input Sample C[C@@]1(c2cc(Nc3ncccc3N)ccc2F)CCSC(N)=N1 — what was its IC50?
## Output > 21 µM

## Input Thanks! And Cc1nc(C(=O)NO)sc1-c1csc(NC(=O)Cc2c(F)cccc2F)n1 ?
## Output > 20 µM

## Input # iterate: C[C@H]1SC(N)=N[C@](C)(c2cc(NC(=O)c3cnc(OCC(F)F)cn3)ccc2F)[C@H]1F
## Output ≥ 10 µM

====

Study the reported IC50 values for UniProt P10635 given below; they originate from different publications.

compound=CCCS(=O)(=O)Nc1ccc(F)c(C(=O)c2c[nH]c3ncc(C#N)c(Cl)c23)c1F test_result="> 10 µM"
compound=COc1cnc(C(=O)Nc2ccc(F)c([C@@]3(C)N=C(N)S[C@H](C)[C@@H]3OC)c2)cn1 test_result="≥ 20 µM"

## Input Look up IC50 for this compound: O=C(O)[C@@H]1CCCN(S(=O)(=O)c2ccccc2C(F)(F)F)C1
## Output > 50 µM

## Input Now consider Cc1ccc(-c2nn3c(c2NC(=O)CS(C)(=O)=O)C(=O)N[C@@]2(CCc4cc(OCC(F)(F)F)ccc42)C3)cc1 .
## Output > 20 µM

====

Several publications report IC50 on Cytochrome P450 2D6 (Homo sapiens); those values are gathered here.

compound_structure_string=COc1nccc(Oc2ccc(/N=c3\[nH]c(=O)n([C@@H](C)[C@@H](C)C(=O)O)c(=O)n3Cc3ccc(Cl)cc3)cc2)n1 parameter=IC50 test_result="> 20 µM"
compound_structure_string=Cc1nc2cc(NC(=O)c3cccnc3NCc3ccnc4c3CC(=O)N4)ccc2s1 parameter=IC50 test_result="> 20 µM"
compound_structure_string=CNC(=O)Nc1cc2n(n1)CCN2c1cc(Br)cc(C(=O)N2CCNCC2)c1 parameter=IC50 test_result="> 20 µM"
compound_structure_string=NC(=O)c1cc(COc2nnc(Nc3ccc(Cl)cc3)c3ccccc23)ccn1 parameter=IC50 test_result="1.3 µM"
compound_structure_string=O=C1Cc2ccc(NC(=O)c3ccccc3NCc3ccc(=O)[nH]c3)cc2N1 parameter=IC50 test_result="> 30 µM"
compound_structure_string=Cc1ccc(Nc2ccc(C(=O)c3c[nH]c4ncnc(NCC5CC5)c34)c(F)n2)cn1 parameter=IC50 test_result="> 10 µM"

## Input State the recorded IC50 for this entry: CC(C)S(=O)(=O)c1nn(C2CC2)cc1Nc1nc(Nc2cc(F)c(C3CCN(C)CC3)cc2OC2CC2)ncc1Cl
## Output > 10 µM

## Input Follow-up item: COc1ccc(Nc2ccc(C(=O)c3c[nH]c4ncnc(NC5CCC5)c34)c(F)n2)cn1
## Output > 10 µM
